Biological target: Saccharomyces cerevisiae dihydroorotase (DHOase) (Saccharomyces cerevisiae)
Construct: gene URA4
Sequence (P20051 whole entry): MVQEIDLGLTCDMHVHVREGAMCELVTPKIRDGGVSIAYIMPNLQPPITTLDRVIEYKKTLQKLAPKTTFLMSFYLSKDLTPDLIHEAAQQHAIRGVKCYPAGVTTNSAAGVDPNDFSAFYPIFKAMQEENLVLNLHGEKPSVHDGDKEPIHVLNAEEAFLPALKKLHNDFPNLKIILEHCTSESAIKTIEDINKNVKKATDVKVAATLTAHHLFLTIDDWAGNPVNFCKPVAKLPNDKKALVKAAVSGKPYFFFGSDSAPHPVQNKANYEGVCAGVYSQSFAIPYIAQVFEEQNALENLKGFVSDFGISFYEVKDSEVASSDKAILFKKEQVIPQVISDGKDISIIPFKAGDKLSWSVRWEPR
Assay: spectrophotometric assay of dihydroorotate hydrolysis at […] nm with purified recombinant enzyme; […] inhibition at […]
Format: biochemical
pIC50: −log10 of the molar value.
measured_property: pIC50

## Task Please give the documented pIC50 of O=C(O)c1[nH]c(=O)[nH]c(=O)c1F
## Result < 3.22
